assay: After a 3-day incubation at 37° C. cell viability was determined by the MTT method as described by Pauwels et al. (J. Virol. Methods 1988, 20, 309-321).To determine the cytotoxicity, cells were seeded at an initial density of 1×10^6 cells/mL in 96 well plates containing Minimum Essential Medium with Earles's salts (MEM-E), L-glutamine, 1 mM sodium pyruvate and 25 mg/L kanamycin, supplemented with 10% fetal bovine serum. Cell cultures were then incubated at 37° C. in a humidified 5% CO2 atmosphere in the absence or presence of serial dilutions of test compounds. Cell viability was determined by the MTT method.; assay type: cell-based
pEC50: −log10 of the molar value.
result_type: pEC50

Which measured pEC50 value corresponds to CC(C)OC(=O)[C@H](C)N[P@](=O)(OCC1O[C@@H](n2ccc(=O)[nH]c2=O)[C@](C)(F)[C@@H]1O)Oc1ccccc1 (stereo partly specified) ? < 4.00
